Answer each item with its documented pIC50.
# EXPERIMENTAL TARGET: recombinant human PI3Kα (6-His(p110-p85α)) (Homo sapiens (Human))
# ASSAY NOTES: Enzymatic activity assay for recombinant human PI3Kα (ADP-Glo)
# CONDITION CONTEXT: 1.2 nM PI3Kα, 20 μM ATP, 80 μM DiC8-PIP2, ADP-Glo
Answers are plain numbers, as −log10 of the molar value.

Consider the worked cases shown below.
compound="Cc1nc(Nc2cccc(N3CCCCC3=O)n2)sc1-c1cc2c(c(S(C)(=O)=O)c1)C(=O)N([C@@H](C)C1CC1)C2 [Example 4]" numeric_value=7.80
compound="Cc1nc(Nc2cccc(N3CCCC3=O)n2)sc1-c1cc2c(c(S(C)(=O)=O)c1)C(=O)N([C@@H](C)C1CC1)C2 [Example 1]" numeric_value=7.26

Shift focus to the following entry.
Enquiry: Under recombinant human PI3Kα (6-His(p110-p85α)) (Homo sapiens (Human)): pIC50 value of CCNS(=O)(=O)c1cc(-c2sc(Nc3cccc(N(C)C(=O)COC)n3)nc2C)cc2c1C(=O)N([C@@H](C)C1CC1)C2 [Example 26] ?
Return: 6.96

* * *

Answer each item with its documented IC50.
# EXPERIMENTAL TARGET: recombinant human PI3Kα (6-His(p110-p85α)) (Homo sapiens (Human), UniProt P42336)
# Sequence (P42336 whole entry): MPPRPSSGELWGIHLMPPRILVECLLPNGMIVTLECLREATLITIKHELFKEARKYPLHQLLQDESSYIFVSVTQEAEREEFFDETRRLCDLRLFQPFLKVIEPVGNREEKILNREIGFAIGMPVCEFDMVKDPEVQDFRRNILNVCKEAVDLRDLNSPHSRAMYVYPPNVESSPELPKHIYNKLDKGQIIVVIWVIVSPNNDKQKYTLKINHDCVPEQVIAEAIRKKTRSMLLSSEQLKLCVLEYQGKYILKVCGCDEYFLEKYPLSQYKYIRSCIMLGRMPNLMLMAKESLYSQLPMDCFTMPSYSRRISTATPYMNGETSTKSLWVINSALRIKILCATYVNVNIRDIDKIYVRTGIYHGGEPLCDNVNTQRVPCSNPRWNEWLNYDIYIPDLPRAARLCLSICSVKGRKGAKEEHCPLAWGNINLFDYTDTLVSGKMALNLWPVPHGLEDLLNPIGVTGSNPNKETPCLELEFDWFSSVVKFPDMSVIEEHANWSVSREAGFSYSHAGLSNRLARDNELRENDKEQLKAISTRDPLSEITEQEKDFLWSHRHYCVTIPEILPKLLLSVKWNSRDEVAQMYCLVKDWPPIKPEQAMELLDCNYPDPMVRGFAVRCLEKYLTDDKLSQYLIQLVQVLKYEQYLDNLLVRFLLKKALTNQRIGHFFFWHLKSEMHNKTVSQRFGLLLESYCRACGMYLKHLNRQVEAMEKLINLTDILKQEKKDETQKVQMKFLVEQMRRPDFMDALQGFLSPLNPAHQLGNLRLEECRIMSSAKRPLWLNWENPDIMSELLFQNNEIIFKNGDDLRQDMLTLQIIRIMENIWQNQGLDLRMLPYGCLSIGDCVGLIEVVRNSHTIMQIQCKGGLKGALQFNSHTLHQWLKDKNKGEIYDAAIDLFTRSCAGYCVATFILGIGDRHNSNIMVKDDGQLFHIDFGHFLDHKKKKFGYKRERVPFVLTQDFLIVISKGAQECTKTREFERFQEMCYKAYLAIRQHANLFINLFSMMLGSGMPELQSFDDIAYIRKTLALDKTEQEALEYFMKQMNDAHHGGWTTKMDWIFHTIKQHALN
# Sequence (P27986 whole entry partner): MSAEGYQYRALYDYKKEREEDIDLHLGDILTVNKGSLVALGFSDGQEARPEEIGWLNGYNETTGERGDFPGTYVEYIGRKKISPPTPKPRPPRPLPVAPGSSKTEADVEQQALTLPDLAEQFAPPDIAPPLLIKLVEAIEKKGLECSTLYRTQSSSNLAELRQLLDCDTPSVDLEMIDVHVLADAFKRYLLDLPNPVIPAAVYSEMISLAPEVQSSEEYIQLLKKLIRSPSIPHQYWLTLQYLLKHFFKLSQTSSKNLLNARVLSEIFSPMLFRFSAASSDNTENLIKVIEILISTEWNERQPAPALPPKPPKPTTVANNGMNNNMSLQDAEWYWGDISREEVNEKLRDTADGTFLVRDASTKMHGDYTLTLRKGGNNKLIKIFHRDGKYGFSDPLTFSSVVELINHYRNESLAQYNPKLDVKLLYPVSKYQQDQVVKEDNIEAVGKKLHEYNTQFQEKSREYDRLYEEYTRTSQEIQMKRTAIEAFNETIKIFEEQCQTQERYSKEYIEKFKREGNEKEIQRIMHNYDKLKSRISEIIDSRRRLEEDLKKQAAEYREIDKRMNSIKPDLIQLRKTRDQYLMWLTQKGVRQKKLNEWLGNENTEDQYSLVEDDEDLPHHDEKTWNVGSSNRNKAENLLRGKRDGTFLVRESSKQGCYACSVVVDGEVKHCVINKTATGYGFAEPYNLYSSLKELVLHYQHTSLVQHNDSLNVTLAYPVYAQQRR
# ASSAY NOTES: Enzymatic activity assay for recombinant human PI3Kα (ADP-Glo)
# CONDITION CONTEXT: 1.2 nM PI3Kα, 20 μM ATP, 80 μM DiC8-PIP2, ADP-Glo
Provide the measurement as a number trailed by its unit.

Consider the worked cases shown below.
compound_string=CCNS(=O)(=O)c1cc(-c2sc(Nc3cccc(N4CCNCC4=O)n3)nc2C)cc2c1C(=O)N([C@@H](C)C1CC1)C2 result="54 nM"
compound_string=CCOCC(=O)N(C)c1cccc(Nc2nc(C)c(-c3cc4c(c(S(=O)(=O)NC)c3)C(=O)N([C@@H](C)C3CC3)C4)s2)n1 result="48 nM"
compound_string=CC[C@H](C)N1Cc2cc(-c3sc(Nc4cccc(N5CCOCC5=O)n4)nc3C)cc(S(=O)(=O)NC)c2C1=O result="162 nM"

Shift focus to the following entry.
Enquiry: Under recombinant human PI3Kα (6-His(p110-p85α)) (Homo sapiens (Human), UniProt P42336): IC50 value of `CNS(=O)(=O)c1cc(-c2sc(Nc3cccc(N4CCNCC4=O)n3)nc2C)cc2c1C(=O)N([C@@H](C)C1CC1)C2` ?
Return: 72 nM

* * *

# EXPERIMENTAL TARGET: recombinant human PI3Kγ ((aa144-1102)-6His) (Homo sapiens (Human), UniProt P48736)
# Sequence (P48736 144-1102): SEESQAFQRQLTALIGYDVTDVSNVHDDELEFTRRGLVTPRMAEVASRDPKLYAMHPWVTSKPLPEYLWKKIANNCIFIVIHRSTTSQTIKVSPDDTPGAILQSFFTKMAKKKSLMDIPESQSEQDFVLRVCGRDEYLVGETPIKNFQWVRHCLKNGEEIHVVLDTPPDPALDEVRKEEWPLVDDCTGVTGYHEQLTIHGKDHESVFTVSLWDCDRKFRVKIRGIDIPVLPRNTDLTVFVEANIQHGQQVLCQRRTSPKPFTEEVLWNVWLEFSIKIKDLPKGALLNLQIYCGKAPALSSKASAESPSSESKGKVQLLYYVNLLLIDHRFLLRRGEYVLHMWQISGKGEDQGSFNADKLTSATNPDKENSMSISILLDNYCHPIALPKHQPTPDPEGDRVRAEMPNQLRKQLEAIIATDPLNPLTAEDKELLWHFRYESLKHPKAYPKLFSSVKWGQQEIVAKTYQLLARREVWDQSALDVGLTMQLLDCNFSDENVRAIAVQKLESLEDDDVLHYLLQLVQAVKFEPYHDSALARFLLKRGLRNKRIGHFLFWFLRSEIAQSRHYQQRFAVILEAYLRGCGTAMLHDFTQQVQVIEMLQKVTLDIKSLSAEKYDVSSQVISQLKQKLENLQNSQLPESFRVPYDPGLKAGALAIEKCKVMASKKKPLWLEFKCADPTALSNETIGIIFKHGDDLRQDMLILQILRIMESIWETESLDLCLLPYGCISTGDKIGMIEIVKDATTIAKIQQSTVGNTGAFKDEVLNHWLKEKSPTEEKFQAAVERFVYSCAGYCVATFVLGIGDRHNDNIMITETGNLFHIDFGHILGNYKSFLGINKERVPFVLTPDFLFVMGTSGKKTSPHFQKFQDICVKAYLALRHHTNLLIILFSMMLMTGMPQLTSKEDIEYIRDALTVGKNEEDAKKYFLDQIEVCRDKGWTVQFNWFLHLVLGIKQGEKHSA
# ASSAY NOTES: Enzymatic activity assay for recombinant human PI3Kγ (ADP-Glo)
# CONDITION CONTEXT: 1.2 nM PI3Kγ, 20 μM ATP, 80 μM DiC8-PIP2, ADP-Glo
Lab note - cut at 1 nM for IC50: T if strictly below, F if not.

Worked examples, 3 compounds total:
compound_string=CCN(C(=O)COC)c1cccc(Nc2nc(C)c(-c3cc4c(c(S(=O)(=O)NC)c3)C(=O)N([C@@H](C)C3CC3)C4)s2)n1 experimental_target="recombinant human PI3Kγ ((aa144-1102)-6His) (Homo sapiens (Human), UniProt P48736)" category_label=T
compound_string=CNS(=O)(=O)c1cc(-c2sc(Nc3cccc(N4C(=O)CC[C@H]4CO)n3)nc2C)cc2c1C(=O)N([C@@H](C)C1CC1)C2 experimental_target="recombinant human PI3Kγ ((aa144-1102)-6His) (Homo sapiens (Human), UniProt P48736)" category_label=F
compound_string=CNS(=O)(=O)c1cc(-c2sc(Nc3cccc(N(C)C(=O)COC)n3)nc2C)cc2c1C(=O)N([C@@H](C)C1CC1)C2 experimental_target="recombinant human PI3Kγ ((aa144-1102)-6His) (Homo sapiens (Human), UniProt P48736)" category_label=T

Enquiry: IC50 strictly < 1 nM for this compound? `CNS(=O)(=O)c1cc(-c2sc(Nc3cccc(N(C)C(C)=O)n3)nc2C)cc2c1C(=O)N([C@@H](C)C1CC1)C2`
Return: T

Enquiry: IC50 strictly < 1 nM for this compound? `Cc1nc(Nc2cccc(N3CCCCC3=O)n2)sc1-c1cc2c(c(S(=O)(=O)NC3COC3)c1)C(=O)N([C@@H](C)C(F)(F)F)C2`
Return: F

Enquiry: IC50 strictly < 1 nM for this compound? `CNS(=O)(=O)c1cc(-c2sc(Nc3cccc(N4CCOCC4=O)n3)nc2C)cc2c1C(=O)N([C@@H](C)C1CC1)C2`
Return: T

Enquiry: IC50 strictly < 1 nM for this compound? `CCNS(=O)(=O)c1cc(-c2sc(Nc3cccc(N4CCOCC4=O)n3)nc2C)cc2c1C(=O)N([C@@H](C)C(F)(F)F)C2`
Return: T

Enquiry: IC50 strictly < 1 nM for this compound? `Cc1nc(Nc2cccc(N3CCOCC3=O)n2)sc1-c1cc2c(c(S(=O)(=O)NC3COC3)c1)C(=O)N([C@@H](C)C1CC1)C2`
Return: T

Enquiry: IC50 strictly < 1 nM for this compound? `CNS(=O)(=O)c1cc(-c2sc(Nc3cccc(N(C)C(=O)[C@H](C)OC)n3)nc2C)cc2c1C(=O)N([C@@H](C)C1CC1)C2`
Return: F

Enquiry: IC50 strictly < 1 nM for this compound? `CNS(=O)(=O)c1cc(-c2sc(Nc3cccc(N4CCCOC4=O)n3)nc2C)cc2c1C(=O)N(C(C)(C)C)C2`
Return: T

* * *

# EXPERIMENTAL TARGET: recombinant human PI3Kα (6-His(p110-p85α)) (Homo sapiens (Human))
# ASSAY NOTES: Enzymatic activity assay for recombinant human PI3Kα (ADP-Glo)
# CONDITION CONTEXT: 1.2 nM PI3Kα, 20 μM ATP, 80 μM DiC8-PIP2, ADP-Glo
Answer each item with its documented pIC50.
One number for each entry, as −log10 of the molar value.

Consider the worked cases shown below.
compound="CNS(=O)(=O)c1cc(-c2sc(Nc3cccc(N4CC(C)(C)NCC4=O)n3)nc2C)cc2c1C(=O)N([C@@H](C)C1CC1)C2 [Example 48]" numeric_value=7.72
compound="CNS(=O)(=O)c1cc(-c2sc(Nc3cccc(N4C[C@H](O)CC4=O)n3)nc2C)cc2c1C(=O)N([C@@H](C)C1CC1)C2 [Example 55]" numeric_value=7.40
compound="CC(=O)Nc1cccc(Nc2nc(C)c(-c3cc4c(c(S(C)(=O)=O)c3)C(=O)N([C@@H](C)C3CC3)C4)s2)n1 [Example 2]" numeric_value=6.58

Give measured pIC50 for every item shown.
1. Cc1nc(Nc2cccc(N3CCCOC3=O)n2)sc1-c1cc2c(c(S(C)(=O)=O)c1)C(=O)N([C@@H](C)C1CC1)C2 [Example 8]
2. Cc1nc(Nc2cccc(N3CCNC3=O)n2)sc1-c1cc2c(c(S(C)(=O)=O)c1)C(=O)N([C@@H](C)C(F)(F)F)C2 [Example 11]
3. CNS(=O)(=O)c1cc(-c2sc(Nc3cccc(N4CCN(C)CC4=O)n3)nc2C)cc2c1C(=O)N([C@@H](C)C1CC1)C2 [Example 22]
4. CNS(=O)(=O)c1cc(-c2sc(Nc3cccc(N4CCCC4=O)n3)nc2C)cc2c1C(=O)N([C@@H](C)C(F)(F)F)C2 [Example 25]

Return:
7.64
7.27
7.42
7.15

* * *

# EXPERIMENTAL TARGET: recombinant human PI3Kα (6-His(p110-p85α)) (Homo sapiens (Human))
# ASSAY NOTES: Enzymatic activity assay for recombinant human PI3Kα (ADP-Glo)
# CONDITION CONTEXT: 1.2 nM PI3Kα, 20 μM ATP, 80 μM DiC8-PIP2, ADP-Glo
OBSERVATION TYPE: pIC50
Answers are plain numbers, as −log10 of the molar value.

Consider the worked cases shown below.
compound_string=CCNS(=O)(=O)c1cc(-c2sc(Nc3cccc(N4CCOCC4=O)n3)nc2C)cc2c1C(=O)N([C@@H](C)C(F)(F)F)C2 numeric_value=7.19
compound_string=CNS(=O)(=O)c1cc(-c2sc(Nc3cccc(N4C[C@@H](C)NCC4=O)n3)nc2C)cc2c1C(=O)N([C@@H](C)C1CC1)C2 numeric_value=7.48
compound_string=Cc1nc(Nc2cccc(N3CCCC3=O)n2)sc1-c1cc2c(c(S(C)(=O)=O)c1)C(=O)N([C@@H](C)C(F)(F)F)C2 numeric_value=7.11
compound_string=CNS(=O)(=O)c1cc(-c2sc(Nc3cccc(N4CCCCC4=O)n3)nc2C)cc2c1C(=O)N([C@@H](C)C1CC1)C2 numeric_value=7.74
compound_string=CNS(=O)(=O)c1cc(-c2sc(Nc3cccc(N(C)C(=O)[C@H](C)OC)n3)nc2C)cc2c1C(=O)N([C@@H](C)C1CC1)C2 numeric_value=7.26

Enquiry: Which pIC50 is listed for `CNS(=O)(=O)c1cc(-c2sc(Nc3cccc(N4CCCOC4=O)n3)nc2C)cc2c1C(=O)N(C(C)(C)C)C2` ?
Return: 7.08
